Measured ratio to parent of individual entries
B1: Flag-CNK^2–549 [Drosophila] / V5-KSR [Drosophila] (parent)
chain 1: MSSNNNAPASAPDTGSTNANDPISGSLSVDSNLVIIQDMIDLSANHLEGLRTQCAISSTLTQQEIRCLESKLVRYFSELLLAKMRLNERIPANGLVPHTTGNELRQWLRVVGLSQGTLTACLARLTTLEQSLRLSDEEIRQLLADSPSQREEEELRRLTRAMQNLRKCMESLESGTAASNNDPEQWHWDSWDRPTHIHRGSVGNIGLGNNSTASPRTHHRQHGVKGKNSALANSTNFKSGRQSPSATEELNSTQGSQLTLTLTPSPPNSPFTPSSGLSSSLNGTPQRSRGTPPPARKHQTLLSQSHVQVDGEQLARNRLPTDPSPDSHSSTSSDIFVDPNTNASSGGSSSNVLMVPCSPGVGHVGMGHAIKHRFTKALGFMATCTLCQKQVFHRWMKCTDCKYICHKSCAPHVPPSCGLPREYVDEFRHIKEQGGYASLPHVHGAAKGSPLVKKSTLGKPLHQQHGDSSSPSSSCTSSTPSSPALFQQRERELDQAGSSSSANLLPTPSLGKHQPSQFNFPNVTVTSSGGSGGVSLISNEPVPEQFPTAPATANGGLDSLVSSSNGHMSSLIGSQTSNASTAATLTGSLVNSTTTTSTCSFFPRKLSTAGVDKRTPFTSEYTDTHKSNDSDKTVSLSGSASTDSDRTPVRVDSTEDGDSGQWRQNSISLKEWDIPYGDLLLLERIGQGRFGTVHRALWHGDVAVKLLNEDYLQDEHMLETFRSEVANFKNTRHENLVLFMGACMNPPYLAIVTSLCKGNTLYTYIHQRREKFAMNRTLLIAQQIAQGMGYLHAREIIHKDLRTKNIFIENGKVIITDFGLFSSTKLLYCDMGLGVPHNWLCYLAPELIRALQPEKPRGECLEFTPYSDVYSFGTVWYELICGEFTFKDQPAESIIWQVGRGMKQSLANLQSGRDVKDLLMLCWTYEKEHRPQFARLLSLLEHLPKKRLARSPSHPVNLSRSAESVF
chain 2: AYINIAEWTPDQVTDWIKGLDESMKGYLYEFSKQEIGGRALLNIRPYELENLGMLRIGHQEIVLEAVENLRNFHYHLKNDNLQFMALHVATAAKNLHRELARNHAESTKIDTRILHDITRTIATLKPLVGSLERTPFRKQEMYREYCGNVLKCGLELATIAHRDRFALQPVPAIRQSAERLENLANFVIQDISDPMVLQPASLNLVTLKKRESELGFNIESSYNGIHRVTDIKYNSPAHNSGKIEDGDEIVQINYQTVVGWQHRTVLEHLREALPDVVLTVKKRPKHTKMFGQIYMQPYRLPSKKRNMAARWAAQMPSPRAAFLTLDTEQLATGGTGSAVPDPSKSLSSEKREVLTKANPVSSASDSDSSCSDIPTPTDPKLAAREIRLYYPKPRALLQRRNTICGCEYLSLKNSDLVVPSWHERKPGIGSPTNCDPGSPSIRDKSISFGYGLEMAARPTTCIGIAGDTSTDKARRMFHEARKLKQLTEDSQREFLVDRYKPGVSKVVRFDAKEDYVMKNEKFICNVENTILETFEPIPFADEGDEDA

# Variants of: B1
# assay.protocol: GST pull-down, immunoblot quantification
# details: with V5-KSR [Drosophila]; S2 cells; GST-HYP + RRKM co-expressed; captured via GST-HYP; anti-V5 (KSR) blot; parent: 1

mutant	ratio to parent
chain 2 D80R K282D	0.16
chain 2 A66F F73R	0.66
chain 2 E249R V251R	0.08
chain 2 F73R	0.87
chain 2 F73R V251R	0.72
chain 2 D80R	0.61
chain 2 F73R E249R	0.16
chain 2 E249R	0.82
chain 2 A66F	0.97
chain 2 V251R	0.79
chain 2 K282D	0.03

Where do the numbers come from? From paper PMC11257983.
